biological target: BCR fusion to kinase domain of MerTK (Ba/F3-MerTK) (Homo sapiens, UniProt Q12866); experiment: In Cell TAM Kinase Assay Using BaF3 Cellular System; assay type: cell-based, murine; conditions: Ba/F3 BCR-kinase fusion proliferation, 72 hours, Cell Titer Glo; kinase not given; read-out: IC50
Sequence (Q12866 21-999 limits assumed, change not shown): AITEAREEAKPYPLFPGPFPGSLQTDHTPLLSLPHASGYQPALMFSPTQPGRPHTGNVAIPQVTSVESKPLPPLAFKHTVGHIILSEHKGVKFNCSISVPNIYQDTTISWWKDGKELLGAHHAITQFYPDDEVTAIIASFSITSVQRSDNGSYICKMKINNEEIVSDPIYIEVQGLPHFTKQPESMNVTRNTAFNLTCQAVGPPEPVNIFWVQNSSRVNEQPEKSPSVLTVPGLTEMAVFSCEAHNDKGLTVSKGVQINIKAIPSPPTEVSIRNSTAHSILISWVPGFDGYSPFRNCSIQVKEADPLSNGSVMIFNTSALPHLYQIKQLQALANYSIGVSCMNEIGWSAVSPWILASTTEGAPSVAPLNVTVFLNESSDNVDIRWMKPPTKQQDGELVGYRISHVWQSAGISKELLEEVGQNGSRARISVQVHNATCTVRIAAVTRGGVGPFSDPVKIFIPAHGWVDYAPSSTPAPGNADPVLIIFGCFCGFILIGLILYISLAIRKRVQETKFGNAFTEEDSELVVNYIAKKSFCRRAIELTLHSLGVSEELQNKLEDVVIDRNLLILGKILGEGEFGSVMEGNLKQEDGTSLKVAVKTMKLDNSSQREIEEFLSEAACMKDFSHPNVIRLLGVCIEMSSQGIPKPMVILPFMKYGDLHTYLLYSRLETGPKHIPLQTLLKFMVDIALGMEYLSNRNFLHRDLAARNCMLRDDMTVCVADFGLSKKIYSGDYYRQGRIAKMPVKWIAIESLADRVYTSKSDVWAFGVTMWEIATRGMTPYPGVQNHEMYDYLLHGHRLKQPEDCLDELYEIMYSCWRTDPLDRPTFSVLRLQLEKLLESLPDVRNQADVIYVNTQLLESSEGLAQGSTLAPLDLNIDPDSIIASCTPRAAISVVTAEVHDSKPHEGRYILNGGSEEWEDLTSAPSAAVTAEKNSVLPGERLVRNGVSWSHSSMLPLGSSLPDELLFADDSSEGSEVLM
metric_name: IC50

Cn1cc(-c2cnc(N)c(C(=O)N[C@@H]3CCN(C(=O)c4ccc(-c5ccc(F)cc5Cl)cc4)C3)c2)cn1 [Example 366] | 0.1 to 0.5 µM

Now examine the next entry.
Determine from records and report IC50 for Cn1cc(-c2cnc(N)c(C(=O)N[C@@H]3CCN(C(=O)c4ccc(Oc5ccc(N)cc5)cc4)C3)c2)cn1 [Example 832]
> 1 µM
